Each entry below carries its recorded % Survival.
System: DU145-TXR cells
measurementNotes: MTT viability assay, reversal of MDR (re-sensitization to paclitaxel) in P-gp overexpressing DU145-TXR cells
Type: cell-based, human
experimentalConditions: 15 µM compound + 500 nM PTX (Paclitaxel, Taxol); DU145-TXR; trial 2, sample 4
assayEndpoint: % Survival (%)

compound: COc1cc2c(cc1OC)CN(CCc1ccc(NC(=O)c3cc(OC)c(OC)cc3NC(=O)c3cnc4ccccc4c3)cc1)CC2 [Tariquidar, reference compound]
value: 7.57
//
compound: O=S(=O)(CCSc1nnc(-c2ccccc2)c2ccccc12)c1ccccc1
value: 46
//
compound: COc1ccc(CCN(C)CCCC(C#N)(c2ccc(OC)c(OC)c2)C(C)C)cc1OC (stereo not shown)
value: 21
//
compound: O=C(c1nc(-c2ccccn2)no1)N1CCN(c2nsc3ccccc23)CC1
value: 58

---

measurementTarget: P-gp (Homo sapiens, UniProt P08183)
Construct: The MDR, P-gp overexpressing DU145-TXR cells were maintained under positive selection pressure; endogenous in cells; host or cells: DU145-TXR (paclitaxel-resistant sub-line of DU145 human prostate cancer cells)
Sequence (P08183 whole entry): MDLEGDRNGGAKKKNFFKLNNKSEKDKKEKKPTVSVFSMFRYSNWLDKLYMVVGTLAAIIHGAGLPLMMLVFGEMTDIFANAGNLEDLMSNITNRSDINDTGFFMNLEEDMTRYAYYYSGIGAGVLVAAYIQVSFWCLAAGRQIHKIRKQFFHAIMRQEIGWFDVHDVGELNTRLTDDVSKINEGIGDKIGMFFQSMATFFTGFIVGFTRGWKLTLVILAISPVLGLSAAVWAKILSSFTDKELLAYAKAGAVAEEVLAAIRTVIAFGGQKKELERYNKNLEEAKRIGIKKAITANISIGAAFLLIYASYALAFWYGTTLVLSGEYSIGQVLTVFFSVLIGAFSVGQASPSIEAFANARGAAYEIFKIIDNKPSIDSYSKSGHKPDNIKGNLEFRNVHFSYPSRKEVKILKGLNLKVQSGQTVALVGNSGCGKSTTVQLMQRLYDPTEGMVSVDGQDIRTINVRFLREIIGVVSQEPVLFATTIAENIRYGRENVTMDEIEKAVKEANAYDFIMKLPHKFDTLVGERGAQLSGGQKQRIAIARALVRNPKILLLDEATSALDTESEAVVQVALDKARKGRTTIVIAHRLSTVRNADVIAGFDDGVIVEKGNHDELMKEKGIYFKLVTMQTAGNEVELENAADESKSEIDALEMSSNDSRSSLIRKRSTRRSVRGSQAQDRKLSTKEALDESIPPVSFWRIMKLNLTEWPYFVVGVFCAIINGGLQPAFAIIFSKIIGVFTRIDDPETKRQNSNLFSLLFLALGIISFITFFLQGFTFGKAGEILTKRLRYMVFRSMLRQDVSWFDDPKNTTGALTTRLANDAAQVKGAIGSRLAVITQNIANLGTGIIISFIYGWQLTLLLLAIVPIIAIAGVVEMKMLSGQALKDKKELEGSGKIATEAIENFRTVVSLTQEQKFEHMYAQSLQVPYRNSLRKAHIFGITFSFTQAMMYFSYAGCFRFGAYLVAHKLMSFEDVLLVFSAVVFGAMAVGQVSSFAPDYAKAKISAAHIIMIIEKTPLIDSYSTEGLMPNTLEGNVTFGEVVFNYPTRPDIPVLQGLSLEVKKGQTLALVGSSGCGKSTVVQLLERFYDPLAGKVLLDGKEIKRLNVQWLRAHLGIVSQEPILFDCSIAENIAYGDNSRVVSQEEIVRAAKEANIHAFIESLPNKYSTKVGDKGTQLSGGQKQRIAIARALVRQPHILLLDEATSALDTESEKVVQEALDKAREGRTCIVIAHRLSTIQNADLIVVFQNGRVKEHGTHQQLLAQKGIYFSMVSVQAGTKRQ
measurementNotes: LC-MS/MS intracellular accumulation assay with or without tariquidar (P-gp transport substrate test) in DU145-TXR cells
Assay type: in vitro ADME
experimentalConditions: Student's T test of the mean
Each entry below carries its recorded P (- TQR vs + TQR), Trial 1.

compound: O=C(c1nc(-c2ccc3cc[nH]c3c2)no1)N1CCN(c2nsc3ccccc23)CC1
comparisonSymbol: >
P (- TQR vs + TQR), Trial 1: 1
--
compound: Cc1onc(-c2ccccc2)c1-c1nnc(Cn2cnc3ccccc3c2=O)o1
comparisonSymbol: =
P (- TQR vs + TQR), Trial 1: 0.7
--
compound: O=S(=O)(Cc1nc2ccccc2n1CC(O)c1ccc(Cl)cc1)c1ccccc1 (centres unmarked)
comparisonSymbol: =
P (- TQR vs + TQR), Trial 1: 0.7
--
compound: Nc1nonc1-n1nnc(C(=O)N/N=C/c2c3ccccc3cc3ccccc23)c1COc1ccc(F)cc1
comparisonSymbol: =
P (- TQR vs + TQR), Trial 1: 0.6
--
compound: COc1ccc(OC)c(NC(=O)c2nnn(-c3ccc4noc(-c5ccccc5)c4c3)c2C)c1
comparisonSymbol: =
P (- TQR vs + TQR), Trial 1: 0.09
--
compound: O=C(NCc1cccc(F)c1)c1nnn2c1Sc1c(C(=O)NCc3cccc(F)c3)nnn1CC2
comparisonSymbol: =
P (- TQR vs + TQR), Trial 1: 0.0008
--
compound: COc1cccc(N2CCN(c3ccc4nnc(CCC(=O)Nc5ccc(F)c(F)c5)n4n3)CC2)c1
comparisonSymbol: =
P (- TQR vs + TQR), Trial 1: 0.9
--
compound: O=S(=O)(CCSc1nnc(-c2ccccc2)c2ccccc12)c1ccccc1
comparisonSymbol: =
P (- TQR vs + TQR), Trial 1: 0.8

---

measurementNotes: SWISS-ADME computational analysis of chemical properties
experimentalConditions: predicted aqueous solubility compared to that observed in the laboratory
assayEndpoint: Correct Water Solubility Prediction?

molecule: O=C(c1nc(-c2ccc3cc[nH]c3c2)no1)N1CCN(c2nsc3ccccc23)CC1
value: Yes
//
molecule: COc1cccc(N2CCN(c3ccc4nnc(CCC(=O)Nc5ccc(F)c(F)c5)n4n3)CC2)c1
value: Yes
//
molecule: Cc1onc(-c2ccccc2)c1-c1nnc(Cn2cnc3c(oc4ccccc43)c2=O)o1
value: Yes
//
molecule: O=C(NCc1cccc(F)c1)c1nnn2c1Sc1c(C(=O)NCc3cccc(F)c3)nnn1CC2
value: Yes
//
molecule: O=S(=O)(CCSc1nnc(-c2ccccc2)c2ccccc12)c1ccccc1
value: No
//
molecule: Cc1onc(-c2ccccc2)c1-c1nnc(Cn2cnc3ccccc3c2=O)o1
value: Yes
//
molecule: CCN1CCN(Cc2c(C(=O)N/N=C3/C(=O)N(C)c4ccccc43)nnn2-c2nonc2N)CC1
value: No
//
molecule: O=C(c1nc(-c2ccccn2)no1)N1CCN(c2nsc3ccccc23)CC1
value: Yes
//
molecule: O=C(c1cc2ccccc2[nH]1)N1CCN(S(=O)(=O)c2cccc3nonc23)CC1
value: Yes
//
molecule: NS(=O)(=O)c1cccc(NC(=O)CSc2nnnn2C2CC2)c1
value: Yes
//
molecule: Nc1nonc1-n1nnc(C(=O)N/N=C/c2c3ccccc3cc3ccccc23)c1COc1ccc(F)cc1
value: No
//
molecule: Cn1cnnc1SCc1c(C(=O)O)nnn1-c1nonc1N
value: Yes
//
molecule: Cc1ccc(-c2noc(-c3cn(Cc4ccc(NS(=O)(=O)c5ccccc5F)cc4)cn3)n2)cc1
value: No
//
molecule: COc1ccc(OC)c(NC(=O)c2nnn(-c3ccc4noc(-c5ccccc5)c4c3)c2C)c1
value: Yes
//
molecule: O=S(=O)(Cc1nc2ccccc2n1CC(O)c1ccc(Cl)cc1)c1ccccc1 (stereo not shown)
value: Yes
//
molecule: Cc1cccc(C2CC(=O)c3cnn(-c4nc5ccccc5[nH]4)c3C2)c1 (stereo not shown)
value: Yes

---

Test system: HFL1 (human lung fibroblast) cell line
measurementNotes: MTT viability assay, inherent toxicity in non-cancerous HFL1 cells
Assay type: cell-based
experimentalConditions: HFL1 cells, compound alone, single samples (trials 1-2, samples 1-4)
assayEndpoint: % Survival (individual sample) (%)

molecule: COc1cccc(N2CCN(c3ccc4nnc(CCC(=O)Nc5ccc(F)c(F)c5)n4n3)CC2)c1 [Compound 101]
value: 103
--
molecule: O=S(=O)(CCSc1nnc(-c2ccccc2)c2ccccc12)c1ccccc1 [Compound 96]
value: 91
--
molecule: O=C(c1nc(-c2ccccn2)no1)N1CCN(c2nsc3ccccc23)CC1 [Compound 124]
value: 89
--
molecule: Cc1onc(-c2ccccc2)c1-c1nnc(Cn2cnc3ccccc3c2=O)o1 [Compound 111]
value: 92
--
molecule: Cc1onc(-c2ccccc2)c1-c1nnc(Cn2cnc3c(oc4ccccc43)c2=O)o1 [Compound 78]
value: 102
--
molecule: O=S(=O)(Cc1nc2ccccc2n1CC(O)c1ccc(Cl)cc1)c1ccccc1 (stereo not drawn) [Compound 97]
value: 85

---

Each entry below carries its recorded viability at 15 µM.
Tested on: DU145-TXR cells
measurementNotes: MTT viability assay, reversal of MDR (re-sensitization to paclitaxel) in P-gp overexpressing DU145-TXR cells
Type: cell-based, human
experimentalConditions: Homo sapiens, 15 µM Compound Alone; DU145-TXR; trial 2, sample 1; read-out: % Survival

compound: Nc1nonc1-n1nnc(C(=O)N/N=C/c2c3ccccc3cc3ccccc23)c1COc1ccc(F)cc1
measurementTarget: DU145-TXR cells
unitOfMeasurement: %
viability at 15 µM: 93

compound: COc1cc2c(cc1OC)CN(CCc1ccc(NC(=O)c3cc(OC)c(OC)cc3NC(=O)c3cnc4ccccc4c3)cc1)CC2 [Tariquidar, reference compound]
measurementTarget: DU145-TXR cells
unitOfMeasurement: %
viability at 15 µM: 80

compound: O=S(=O)(CCSc1nnc(-c2ccccc2)c2ccccc12)c1ccccc1
measurementTarget: DU145-TXR cells
unitOfMeasurement: %
viability at 15 µM: 85

compound: CCN1CCN(Cc2c(C(=O)N/N=C3/C(=O)N(C)c4ccccc43)nnn2-c2nonc2N)CC1
measurementTarget: DU145-TXR cells
unitOfMeasurement: %
viability at 15 µM: 93

compound: COc1cccc(N2CCN(c3ccc4nnc(CCC(=O)Nc5ccc(F)c(F)c5)n4n3)CC2)c1
measurementTarget: DU145-TXR cells
unitOfMeasurement: %
viability at 15 µM: 117

compound: O=C(c1cc2ccccc2[nH]1)N1CCN(S(=O)(=O)c2cccc3nonc23)CC1
measurementTarget: DU145-TXR cells
unitOfMeasurement: %
viability at 15 µM: 76

compound: NS(=O)(=O)c1cccc(NC(=O)CSc2nnnn2C2CC2)c1
measurementTarget: DU145-TXR cells
unitOfMeasurement: %
viability at 15 µM: 103

---

measurementTarget: P-gp (Homo sapiens)
Construct: The MDR, P-gp overexpressing DU145-TXR cells were maintained under positive selection pressure; endogenous in cells; host or cells: DU145-TXR (paclitaxel-resistant sub-line of DU145 human prostate cancer cells)
measurementNotes: LC-MS/MS intracellular accumulation assay with or without tariquidar (P-gp transport substrate test) in DU145-TXR cells
Format: in vitro ADME
experimentalConditions: Student's T test of the mean
Each entry below carries its recorded P (- TQR vs + TQR), Trial 1.

compoundSmiles: O=C(c1cc2ccccc2[nH]1)N1CCN(S(=O)(=O)c2cccc3nonc23)CC1
measurementTarget: P-gp (Homo sapiens)
P (- TQR vs + TQR), Trial 1: 0.4
//
compoundSmiles: Cc1ccc(-c2noc(-c3cn(Cc4ccc(NS(=O)(=O)c5ccccc5F)cc4)cn3)n2)cc1
measurementTarget: P-gp (Homo sapiens)
P (- TQR vs + TQR), Trial 1: 0.6
//
compoundSmiles: CCN1CCN(Cc2c(C(=O)N/N=C3/C(=O)N(C)c4ccccc43)nnn2-c2nonc2N)CC1
measurementTarget: P-gp (Homo sapiens)
P (- TQR vs + TQR), Trial 1: 2 x 10^-6
//
compoundSmiles: O=C(c1nc(-c2ccccn2)no1)N1CCN(c2nsc3ccccc23)CC1
measurementTarget: P-gp (Homo sapiens)
P (- TQR vs + TQR), Trial 1: 0.001
